Attribution: ChEMBL document CHEMBL1275447

# experiment.summary: Clearance in Pseudomonas aeruginosa ATCC 27853 infected neutropenic ICR mouse at 50 mg/kg, sc administered as single dose 2 hrs postinfection
# Assay type: ADME, organism-based
# Set-up: dose 50 mg/kg, route subcutaneous
# measurement.conditions: in vivo
measured.endpoint: CL/F (mL/min/kg)
Return type: number; implicit unit mL/min/kg.

Lookup: What CL/F value was documented for this compound, C[C@@H](O)[C@H]1C(=O)N2C(C(=O)O)=C(S[C@@H]3CN[C@H](CNS(N)(=O)=O)C3)[C@H](C)[C@H]12 [DORIPENEM] ?
Found: 13.1

----------
# experiment.summary: AUC in Pseudomonas aeruginosa ATCC 27853 infected neutropenic ICR mouse at 500 mg administered as 4 hr infusion
# Format: ADME, organism-based
# measurement.conditions: plasma, iv
measured.endpoint: AUC at 4 h (ng·h/mL)
// return numeric value only (unit: ng·h/mL, not printed)

Lookup: # lookup: AUC at 4 h of "C[C@@H](O)[C@H]1C(=O)N2C(C(=O)O)=C(S[C@@H]3CN[C@H](CNS(N)(=O)=O)C3)[C@H](C)[C@H]12"
Found: 34400
